Tested on: Es-2
assayProtocol: Primary qHTS to identify gynecologic anti-cancer compounds using libraries of approved drugs and bioactive compounds (AID 1345084); note: % is set by controls: 0 for no effect and ±100 for the full control effect; nearly all actives have a fitted effect of over 55% in size
cond: Gynecologic cancer cell panel viability, ATPlite luminescence, 48 h; series mostly up to 57.5 µM
Results filed as inconclusive are left out. The source made the active and inactive calls. Calls come from the whole dose curve; as a rule, active = well fitted cell-killing curve with a large enough effect; inconclusive = small, poorly fitted or top-dose-only effect, or effect the other way; inactive = flat fitted curve, though single readings scatter.
assayEndpoint: activity change, negative = cytotoxicity

>>> recordedmeasurement("COC(=O)C1=CO[C@@H](O[C@@H]2O[C@H](CO)[C@@H](O)[C@H](O)[C@H]2O)[C@H]2[C@@H]1[C@H](O)[C@H](O)[C@]2(C)O")
"inactive"
>>> recordedmeasurement("COC(=O)C(Cc1ccccc1)NC(=O)c1ccccc1 (centres undefined)")
"inactive"
>>> recordedmeasurement("C[C@]1(O)CC[C@@H]2C(C(=O)O)=CO[C@@H](O[C@@H]3O[C@H](COC(=O)/C=C/c4ccc(O)c(O)c4)[C@@H](O)[C@H](O)[C@H]3O)[C@@H]21")
"inactive"
>>> recordedmeasurement("CC(O)CCc1ccc(O[C@@H]2O[C@H](CO)[C@@H](O)[C@H](O)[C@H]2O)cc1 (some centres undefined)")
"inactive"
>>> recordedmeasurement("C=C1CC[C@@H]2[C@](C)(CO)[C@H](O[C@@H]3O[C@H](CO)[C@@H](O)[C@H](O)[C@H]3O)CC[C@@]2(C)[C@@H]1C/C=C1/C(=O)OC[C@H]1O")
"inactive"
>>> recordedmeasurement("CC1(C)CCC2(C(=O)O)CCC3(C)C(=CCC4C5(C)CCC(O)C(C)(CO)C5C(O)CC43C)C2C1 (centres undefined)")
"inactive"
>>> recordedmeasurement("CC(O)C1CCC2C3CCC4CC(OC5OC(C(=O)O)C(O)C(O)C5O)CCC4(C)C3CCC12C (centres undefined)")
"inactive"
>>> recordedmeasurement("C=Cc1ccc(O[C@@H]2O[C@H](CO[C@@H]3O[C@@H](C)[C@H](O)[C@@H](O)[C@H]3O)[C@@H](O)[C@H](O)[C@H]2O)cc1")
"inactive"

For every listed record, write down its activity change, negative = cytotoxicity.
1. C=C[C@H]1[C@H](O[C@@H]2O[C@H](CO)[C@@H](O)[C@H](O)[C@H]2O)OC=C(C(=O)OC)[C@H]1CCO
2. C[C@@H]1O[C@@H](O[C@H]2[C@H](O)[C@@H](O)[C@H](OC(=O)[C@]34CCC(C)(C)C[C@H]3C3=CCC5[C@@]6(C)CC[C@H](O[C@@H]7O[C@H](C(=O)O)[C@@H](O)[C@H](O)[C@H]7O)C(C)(C)C6CC[C@@]5(C)[C@]3(C)CC4)O[C@@H]2CO)[C@H](O)[C@H](O)[C@H]1O (some centres undefined)
3. CCC[C@H](N[C@@H](C)C(=O)N1[C@H](C(=O)O)C[C@@H]2CCCC[C@@H]21)C(=O)O

1. inactive
2. -1.51% [at 11.6 µM] (inactive)
3. inactive

====

assayProtocol: P-glycoprotein substrates identified in KB-3-1 adenocarcinoma cell line, qHTS therapeutic library screen (AID 1346986); note: nearly all actives have a fitted effect of over 60% in size
cond: KB-3-1 parental cells viability, CellTiter-Glo, 72 h; series mostly up to 44.5 µM
Inconclusive results are not listed. Activity calls are given as the source filed them. Calls follow the shape of the dose curve; as a rule, active = well fitted inhibition curve with a large enough effect; inconclusive = small, poorly fitted or top-dose-only effect; inactive = no such curve, though single readings can be large or run the other way.
assayEndpoint: outcome

Below: 10 compounds and their reported outcome.
>>> recordedmeasurement("Cc1cc(CNC(=O)c2cc(C(=O)NCc3ccc(F)c(C)c3)ncn2)ccc1F")
"inactive"
>>> recordedmeasurement("COC(=O)[C@H](Cc1cccc(C(=N)N)c1)[C@@H](C)NC(=O)c1ccc(-c2cc[n+]([O-])cc2)cc1")
"inactive"
>>> recordedmeasurement("CC(C)CC(=O)NCCn1cc(C(=O)O)c(=O)cc1C(O)c1ccccc1 (stereo unspecified)")
"inactive"
>>> recordedmeasurement("COC1OC(=O)C2=C1C1(C)CCCC(C)(C)C1CC2O (stereo unspecified)")
"inactive"
>>> recordedmeasurement("CC1=C2CC(C)(C)CC2C(O)C2=C(C1)C(=O)OC2O (stereo unspecified)")
"inactive"
>>> recordedmeasurement("CCC(C)(C)C1CCc2c(sc(NC(=O)c3ccc(Br)cc3)c2C#N)C1 (stereo unspecified)")
"inactive"
>>> recordedmeasurement("CC1(C(=O)O)CC[C@]2(C(=O)OC3OC(CO)C(O)C(O)C3O)CC[C@]3(C)C(=CCC4[C@@]5(C)CC[C@H](OC6OCC(O)C(O)C6OC6OC(CO)C(O)C(O)C6O)C(C)(C)C5CC[C@]43C)C2C1 (stereo partly specified)")
"inactive [at 9.29 µM]"
>>> recordedmeasurement("COC(=O)C1=COC(OC2OC(CO)C(O)C(O)C2O)C2C(C)C(OC(C)=O)C(OC(=O)c3ccccc3)C12 (stereo unspecified)")
"inactive"
>>> recordedmeasurement("CC(=O)OC1CC2C(C)(C)C(=O)C=CC2(C)C2CC(=O)C3=C(CCC3C3=CC(O)OC3=O)C12C (stereo unspecified)")
"inactive"
>>> recordedmeasurement("COC(=O)C(CC1(O)c2ccccc2N2C(=O)C(CC(C)C)NC21)n1cnc2ccccc2c1=O (stereo unspecified)")
"inactive"

State recorded outcome for all listed compounds.
1. COc1ccc(OC)c(C2C(C#N)=C(N)Oc3n[nH]c(-c4ccc5ccccc5c4)c32)c1 (stereo unspecified)
2. Cc1ccccc1NC(=O)Nc1ccc(CN2C(=O)N([C@@H](CC(C)C)C(=O)N[C@@H](CC(=O)O)c3ccccc3)C(=O)C2(C)C)cc1
3. NC[C@@H]1O[C@@H](O[C@@H]2[C@@H](O[C@@H]3O[C@H](CO)[C@@H](O)[C@H]3O)[C@H](O)[C@@H](N)C[C@H]2N)[C@@H](N)[C@H](O)[C@H]1O

1: inactive; 2: inactive; 3: inactive [at 9.29 µM]

Look at each compound and report its outcome.
1. CC1(CO)CCCC2(C)C3COC(=O)C3=CC(O)C12 (stereo unspecified)
2. C/C(=C\CCC1(C)C2CC3C(C2)C31C)C(=O)O (stereo unspecified)
3. OC[C@H]1O[C@@H](OC[C@H]2O[C@@H](OCc3ccccc3)[C@H](O)[C@@H](O)[C@@H]2O)[C@H](O)[C@@H](O)[C@@H]1O
4. CCC(C)/C=C(C)/C=C/C1=CC2=C(Cl)C(=O)C(C)(OC(C)=O)C(=O)C2=CN1C(CCC(=O)O)C(=O)O (stereo unspecified)

1: inactive; 2: inactive; 3: inactive; 4: inactive
